Test: qHTS of pediatric cancer cell lines to identify multiple opportunities for drug repurposing: Primary screen for Rh30 cells (AID 1347107); further: nearly all actives have a fitted effect of over 75% in size
Settings: Rh30 rhabdomyosarcoma viability, CellTiter-Glo luminescence, 48 h; series mostly up to 46 µM
Records with an inconclusive call do not appear. The source made the active and inactive calls. The call rests on the fitted dose curve; in most records, active means well fitted cell-killing curve with a large enough effect; inconclusive means small, poorly fitted or top-dose-only effect; inactive means no such curve, though single readings can be large or run the other way.
Assign a class; possible classes are active, inactive

- compound: "CC(C)c1noc(N2CCC(COc3ccc(-c4ccc(S(C)(=O)=O)cc4)nc3)CC2)n1"
  assigned_category: "inactive"
- compound: "Cc1coc2c1C(=O)C(=O)c1c-2ccc2c1CCCC2(C)C"
  assigned_category: "inactive"

Query: Hi team, can someone confirm the assay call for Cc1ccc(NC(=O)C2(c3ccc4c(c3)OC(F)(F)O4)CC2)nc1-c1cccc(C(=O)O)c1 ?
Result: inactive

Query: recorded result category for CC1(C)OC2=C(C(=O)c3ccccc3C2=O)[C@H](NCc2ccccc2)[C@H]1O in this test
Result: active

Query: What call does the record list for CC(NCc1ccc2c(c1)nc(NC(=O)c1ccc(-c3cn[nH]c3)s1)n2CC(C)(C)O)C(C)(C)C (configuration not stated) ?
Result: active

Query: Any idea what this test logged for C[C@H]1C[C@@H]2[C@@H]([C@@H](O)C[C@@]3(C)[C@H]2CC[C@]3(O)C(=O)CO)[C@@]2(C)C=CC(=O)C=C12 ?
Result: inactive

Query: What call does the record list for CCCn1c(=O)c2[nH]c(-c3cnn(Cc4cccc(C(F)(F)F)c4)c3)nc2n(CC)c1=O ?
Result: inactive
